The entries below come with measured protein stability index values attached.
B1: MYBL2 (parent)
chain: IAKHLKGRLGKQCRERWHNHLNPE

Variants of: B1
experimental_details: protein stability index of a GFP-peptide fusion (GPS, HEK-293T) (PSI 1-6); higher = more stable;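 further: lentivirally expressed fusions sorted by FACS into six bins by GFP to DsRed ratio, PSI derived from sequencing read proportions per bin multiplied by bin number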
condition_notes: c terminus: a fixed tail appended
Reply with the value as a number alone.

These solved cases illustrate the format of a correct answer.
mutant: N19H
protein stability index: 1.73
--
mutant: K11P
protein stability index: 1.75
--
mutant: E24P
protein stability index: 2.12
--
mutant: K3P
protein stability index: 1.93
--
mutant: K11N
protein stability index: 2.43

Which protein stability index is listed for R8Y ?
1.9

Also, E24V please.
3.05
